These measurements were taken from the supplement of paper PMC9112550.

- Tested on: Escherichia coli TOP10;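 note: peptides expressed intracellularly from a pBAD plasmid library in pooled LB shake-flask culture, induced with 0.3% L-arabinose, DNA abundance read by NGS, three biological replicates, DESeq2 with apeglm shrinkage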
- Assay summary: shrunken log2 fold change of peptide-encoding DNA abundance (4.5 h post-induction vs induction); higher = less antimicrobial activity (less host growth inhibition)
- Condition description: time post-induction: 4.5 h; library: site-saturation at positions 5, 18, 19, 20
Assignment: determine reported shrunken log2 fold change for the given sequences.
Give only the figure.

Give reported shrunken log2 fold change value for "RRIRLRPPRLPRPRPRPQKRPRP" 0.0648

Give reported shrunken log2 fold change value for "RRIRVRPPRLPRPRPRPTPRPRP" 0.859

Give reported shrunken log2 fold change value for "RRIRIRPPRLPRPRPRPNYSPRP" -0.937

Give reported shrunken log2 fold change value for "RRIRDRPPRLPRPRPRPHWSPRP" -0.132

Give reported shrunken log2 fold change value for "RRIRMRPPRLPRPRPRPSHRPRP" 0.254

Give reported shrunken log2 fold change value for "RRIRMRPPRLPRPRPRPLLDPRP" 0.409

Give reported shrunken log2 fold change value for "RRIRSRPPRLPRPRPRPLHQPRP" -0.248

Give reported shrunken log2 fold change value for "RRIRLRPPRLPRPRPRPNVDPRP" -0.492
